Catalogue of compounds with associated IC50
Test system: cultured human mast cells
Test: Degranulation inhibition test using cultured human mast cells (IgE cross-linking, β-Hexosaminidase release)
Type: cell-based
Details: Mast cell; cultured human mast cells, anti-hIgE stimulation, β-Hexosaminidase index, average; read-out: human degranulation ave. IC50

>  <SMI>
CC(=O)N[C@@H](C)c1ncc(-c2cccc(Nc3cc(C(C)=O)ccn3)n2)s1

>  <IC50>
100 to 1000 nM

$$$$
>  <SMI>
Cc1ccnc(Nc2cccc(-c3cnc([C@H]4CC[C@H](CN)CC4)s3)n2)c1

>  <IC50>
> 1000 nM

$$$$
>  <SMI>
Cc1ccnc(Nc2cccc(-c3cnc([C@H]4CC[C@H](CN5CCC(O)CC5)CC4)s3)n2)c1

>  <IC50>
> 1000 nM

$$$$
>  <SMI>
CC(=O)N1CCN(Cc2ncc(-c3cccc(Nc4cc(C)ccn4)n3)s2)CC1

>  <IC50>
100 to 1000 nM

$$$$
>  <SMI>
Cc1ccnc(Nc2cccc(-c3cnc(CN4CCN(C)CC4)s3)n2)c1

>  <IC50>
> 1000 nM

$$$$
>  <SMI>
Cc1ccnc(Nc2cccc(-c3cnc(C4CCN(C(=O)c5ccncc5)CC4)s3)n2)c1

>  <IC50>
100 to 1000 nM

$$$$
>  <SMI>
Cc1ccnc(Nc2cccc(-c3cnc(C(=O)C(C)C)s3)n2)c1

>  <IC50>
> 1000 nM

$$$$
>  <SMI>
Cc1ccnc(Nc2cccc(-c3cnc(CNCc4ccc(C(=O)O)cc4)s3)n2)c1

>  <IC50>
> 1000 nM

$$$$

* * *

System: cultured human mast cells
Test: Degranulation inhibition test using cultured human mast cells (IgE cross-linking, β-Hexosaminidase release)
Assay type: cell-based
Details: Mast cell; Tables 1-x, compounds A; cultured human mast cells; read-out: human degranulation ave. IC50
Counter-ions that a name gives are not always drawn.
METRIC: IC50

>  <COMPOUND>
CNC(=O)C1(C)CCN(c2ncc(-c3cccc(Nc4cc(C)ccn4)n3)s2)CC1

>  <RESULT>
0.1 to 1 µM

$$$$
>  <COMPOUND>
Cc1ccnc(Nc2cccc(-c3cnc(CN4CCNC(=O)C4)s3)n2)c1

>  <RESULT>
< 0.1 µM

$$$$
>  <COMPOUND>
Cc1ccnc(Nc2cccc(-c3cnc(N(C)CCO)s3)n2)c1

>  <RESULT>
< 0.1 µM

$$$$
>  <COMPOUND>
Cc1ccnc(Nc2cccc(-c3cnc(N4CCC(C)(CC(=O)O)CC4)s3)n2)c1 [Compound A-613, dihydrochloride]

>  <RESULT>
0.1 to 1 µM

$$$$
>  <COMPOUND>
Cc1ccnc(Nc2cccc(-c3cnc(N(C)CC(=O)N[C@H](C(=O)O)C(C)C)s3)n2)c1 [Compound A-568, dihydrochloride]

>  <RESULT>
> 1 µM

$$$$
>  <COMPOUND>
CC(=O)N1CCC(N(CCNS(C)(=O)=O)c2ncc(-c3cccc(Nc4cc(C)ccn4)n3)s2)CC1

>  <RESULT>
> 1 µM

$$$$
>  <COMPOUND>
CC(=O)N1CCC(N(C)c2ncc(-c3cccc(Nc4cc(Cl)ccn4)n3)s2)CC1

>  <RESULT>
0.1 to 1 µM

$$$$
>  <COMPOUND>
Cc1ccnc(Nc2cccc(-c3cnc(N4CC[C@@H](OCC(=O)O)C4)s3)n2)c1 [Compound A-575, dihydrochloride]

>  <RESULT>
> 1 µM

$$$$
>  <COMPOUND>
Cc1ccnc(Nc2cccc(-c3cnc(N4CC[C@@H](N)C4)s3)n2)c1

>  <RESULT>
> 1 µM

$$$$
>  <COMPOUND>
O=C(O)CC1CCN(c2ncc(-c3cccc(Nc4cc(Cl)ccn4)n3)s2)CC1 [Compound A-620, dihydrochloride]

>  <RESULT>
0.1 to 1 µM

$$$$
>  <COMPOUND>
Cc1ccnc(Nc2cccc(-c3cnc(CN4CC(=O)NC(=O)C4)s3)n2)c1

>  <RESULT>
0.1 to 1 µM

$$$$
>  <COMPOUND>
Cc1ccnc(Nc2cccc(-c3cnc(N4CCC[C@H]4C(N)=O)s3)n2)c1

>  <RESULT>
< 0.1 µM

$$$$
>  <COMPOUND>
Cc1ccnc(Nc2cccc(-c3cnc(C4CCCNC4)s3)n2)c1 (centres unmarked)

>  <RESULT>
0.1 to 1 µM

$$$$
>  <COMPOUND>
Cc1ccnc(Nc2cccc(-c3cnc(C4CCN(C(=O)CS(C)(=O)=O)CC4)s3)n2)c1

>  <RESULT>
0.1 to 1 µM

$$$$
>  <COMPOUND>
Cc1ccnc(Nc2cccc(-c3cnc(N(C)Cc4ccc(C(=O)O)s4)s3)n2)c1

>  <RESULT>
> 1 µM

$$$$
>  <COMPOUND>
Cc1ccnc(Nc2cccc(-c3cnc(N4CCC(c5noc(=O)[nH]5)CC4)s3)n2)c1

>  <RESULT>
> 1 µM

$$$$
>  <COMPOUND>
CN(Cc1ccc(C(=O)O)cc1)c1ncc(-c2cccc(Nc3cc(C4(C)OCCO4)ccn3)n2)s1

>  <RESULT>
0.1 to 1 µM

$$$$
>  <COMPOUND>
CC(=O)N1CCN(c2ncc(-c3cccc(Nc4cc(Cl)ccn4)n3)s2)CC1

>  <RESULT>
0.1 to 1 µM

$$$$
>  <COMPOUND>
OCCN(CCO)c1ncc(-c2cccc(Nc3cc(Cl)ccn3)n2)s1

>  <RESULT>
< 0.1 µM

$$$$
>  <COMPOUND>
CC(=O)N1CC[C@@H](N(C)c2ncc(-c3cccc(Nc4cc(C)ccn4)n3)s2)C1

>  <RESULT>
0.1 to 1 µM

$$$$
>  <COMPOUND>
Cc1ccnc(Nc2cccc(-c3cnc(N(C)CC(=O)N(C)CC(=O)O)s3)n2)c1 [Compound A-580, dihydrochloride]

>  <RESULT>
> 1 µM

$$$$
>  <COMPOUND>
Cc1ccnc(Nc2cccc(-c3cnc(CNC(=O)c4cc(C)on4)s3)n2)c1

>  <RESULT>
> 1 µM

$$$$
>  <COMPOUND>
CC(=O)N1CCC(Nc2ncc(-c3cccc(Nc4cc(C)ccn4)n3)s2)CC1

>  <RESULT>
0.1 to 1 µM

$$$$
>  <COMPOUND>
Cc1ccnc(Nc2cccc(-c3cnc([C@@H]4CNC(=O)O4)s3)n2)c1

>  <RESULT>
< 0.1 µM

$$$$
>  <COMPOUND>
Cc1ccnc(Nc2cccc(-c3cnc(N(C)CCc4ccc(C(=O)O)cc4)s3)n2)c1 [Compound A-593, dihydrochloride]

>  <RESULT>
0.1 to 1 µM

$$$$
>  <COMPOUND>
O=C(NO)[C@@H]1CCCN(c2ncc(-c3cccc(Nc4cc(Cl)ccn4)n3)s2)C1

>  <RESULT>
0.1 to 1 µM

$$$$
>  <COMPOUND>
Cc1ccnc(Nc2cccc(-c3cnc(N4CCCC(C(=O)NCCO)C4)s3)n2)c1 (centres unmarked)

>  <RESULT>
0.1 to 1 µM

$$$$
>  <COMPOUND>
Cc1ccnc(Nc2cccc(-c3cnc(C4CCN(C(=O)c5ccc(O)cc5)CC4)s3)n2)c1

>  <RESULT>
0.1 to 1 µM

$$$$
>  <COMPOUND>
Cc1ccnc(Nc2cccc(-c3cnc(N(C)C4CCOCC4)s3)n2)c1

>  <RESULT>
0.1 to 1 µM

$$$$
>  <COMPOUND>
Cc1ccnc(Nc2cccc(-c3cnc(N(CCO)CCO)s3)n2)c1

>  <RESULT>
< 0.1 µM

$$$$
>  <COMPOUND>
CC(=O)N[C@H]1CN(C(=O)COCc2ncc(-c3cccc(Nc4cc(C)ccn4)n3)s2)C[C@@H]1O

>  <RESULT>
> 1 µM

$$$$
>  <COMPOUND>
Cc1ccnc(Nc2cccc(-c3cnc(N4CCCC(C(=O)O)C4)s3)n2)c1 (centres unmarked)

>  <RESULT>
> 1 µM

$$$$

* * *

Catalogue of molecules with associated IC50
Target: GST-Syk Full Protein (human) (Homo sapiens)
Assay: Syk kinase inhibition test (HTRF method)
Format: biochemical
Conditions: Tables 1-x, compounds A; read-out: sykHTRF ave IC50
Counter-ions that a name gives are not always drawn.
METRIC: IC50

>  <MOLECULE>
Cc1ccnc(Nc2cccc(-c3cnc(N4CCCC(C(N)=O)C4)s3)n2)c1 (stereo not drawn)

>  <METRIC>
IC50

>  <RESULT>
< 100 nM

$$$$
>  <MOLECULE>
Cc1ccnc(Nc2cccc(-c3cnc(N4CCC(CCO)CC4)s3)n2)c1

>  <METRIC>
IC50

>  <RESULT>
< 100 nM

$$$$
>  <MOLECULE>
Cc1ccnc(Nc2cccc(-c3cnc(N(C)C4CCC(C(=O)N[C@H]5CC[C@H](O)CC5)CC4)s3)n2)c1 (stereo partly drawn)

>  <METRIC>
IC50

>  <RESULT>
100 to 1000 nM

$$$$
>  <MOLECULE>
O=C(O)CC1CCN(c2ncc(-c3cccc(Nc4cc(C(F)(F)F)ccn4)n3)s2)CC1 [Compound A-635, dihydrochloride]

>  <METRIC>
IC50

>  <RESULT>
< 100 nM

$$$$
>  <MOLECULE>
O=C(O)CC1CCN(c2ncc(-c3cccc(Nc4cc(Cl)ccn4)n3)s2)CC1 [Compound A-620, dihydrochloride]

>  <METRIC>
IC50

>  <RESULT>
< 100 nM

$$$$
>  <MOLECULE>
Cc1ccnc(Nc2cccc(-c3cnc(CN4CCC[C@H]4C(=O)N(C)C)s3)n2)c1

>  <METRIC>
IC50

>  <RESULT>
100 to 1000 nM

$$$$
>  <MOLECULE>
Cc1ccnc(Nc2cccc(-c3cnc(N4CC[C@@H](NC(=O)CO)C4)s3)n2)c1

>  <METRIC>
IC50

>  <RESULT>
< 100 nM

$$$$
>  <MOLECULE>
COC(=O)N(CC(=O)O)Cc1ncc(-c2cccc(Nc3cc(C)ccn3)n2)s1

>  <METRIC>
IC50

>  <RESULT>
100 to 1000 nM

$$$$
>  <MOLECULE>
CC(=O)N1CCC(Nc2ncc(-c3cccc(Nc4cc(C)ccn4)n3)s2)CC1

>  <METRIC>
IC50

>  <RESULT>
< 100 nM

$$$$
>  <MOLECULE>
Cc1ccnc(Nc2cccc(-c3cnc([C@@H]4COC(=O)N4CC(=O)N4C[C@@H](O)[C@@H](O)C4)s3)n2)c1

>  <METRIC>
IC50

>  <RESULT>
> 1000 nM

$$$$
>  <MOLECULE>
Cc1ccnc(Nc2cccc(-c3cnc(N(C)CC(=O)NCCC(=O)O)s3)n2)c1 [Compound A-570, dihydrochloride]

>  <METRIC>
IC50

>  <RESULT>
< 100 nM

$$$$
>  <MOLECULE>
Cc1ccnc(Nc2cccc(-c3cnc(N(CC(N)=O)C(C)C)s3)n2)c1

>  <METRIC>
IC50

>  <RESULT>
< 100 nM

$$$$
>  <MOLECULE>
Cc1ccnc(Nc2cccc(-c3cnc(N(C)c4ccc(CC(=O)O)cc4)s3)n2)c1 [Compound A-617, dihydrochloride]

>  <METRIC>
IC50

>  <RESULT>
< 100 nM

$$$$
>  <MOLECULE>
COc1cc(C(=O)O)ccc1CN(C)c1ncc(-c2cccc(Nc3cc(C)ccn3)n2)s1 [Compound A-606, dihydrochloride]

>  <METRIC>
IC50

>  <RESULT>
< 100 nM

$$$$
>  <MOLECULE>
Cc1ccnc(Nc2cccc(-c3cnc(N4CCC(=C(F)C(=O)O)CC4)s3)n2)c1

>  <METRIC>
IC50

>  <RESULT>
< 100 nM

$$$$
